A collection of compounds and their measured residual activity
target_desc: Ribosomal protein S6 kinase alpha-5 (Homo sapiens)
Sequence (O75582 whole entry, looked up): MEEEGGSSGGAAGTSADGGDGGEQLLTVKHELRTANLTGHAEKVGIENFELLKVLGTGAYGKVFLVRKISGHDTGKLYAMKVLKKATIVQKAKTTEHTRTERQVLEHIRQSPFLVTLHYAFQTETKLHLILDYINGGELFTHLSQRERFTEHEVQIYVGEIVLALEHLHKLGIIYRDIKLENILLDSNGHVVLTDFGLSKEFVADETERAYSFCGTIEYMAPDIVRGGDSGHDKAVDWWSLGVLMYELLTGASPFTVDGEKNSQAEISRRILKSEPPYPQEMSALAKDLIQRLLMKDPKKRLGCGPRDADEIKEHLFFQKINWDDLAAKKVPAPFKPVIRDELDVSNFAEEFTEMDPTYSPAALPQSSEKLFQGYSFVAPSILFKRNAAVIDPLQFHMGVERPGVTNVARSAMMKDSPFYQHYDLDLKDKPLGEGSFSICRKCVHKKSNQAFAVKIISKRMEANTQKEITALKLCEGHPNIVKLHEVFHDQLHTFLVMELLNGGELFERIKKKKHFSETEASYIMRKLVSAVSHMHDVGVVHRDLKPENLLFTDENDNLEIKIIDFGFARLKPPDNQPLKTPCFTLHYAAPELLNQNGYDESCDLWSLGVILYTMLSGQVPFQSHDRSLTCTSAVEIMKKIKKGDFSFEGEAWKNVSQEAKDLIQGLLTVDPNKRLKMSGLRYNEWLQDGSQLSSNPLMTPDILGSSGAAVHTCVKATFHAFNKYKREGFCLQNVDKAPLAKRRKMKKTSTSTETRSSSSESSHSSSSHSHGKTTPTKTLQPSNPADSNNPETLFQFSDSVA
test_summary: Inhibition of His-tagged human MSK1 expressed in Sf9 cells at 1 uM; values are per cent of control
Enter your answer as a number in %; do not include the unit.

Worked examples follow.
# compound, parameter, unit_of_measure, test_result
records = [
    ("O=C1NC(=O)C(c2c[nH]c3ccccc23)=C1c1c[nH]c2ccccc12", "residual activity", "%", 56),
    ("Cn1cc(C2=C(c3cn(CCCSC(=N)N)c4ccccc34)C(=O)NC2=O)c2ccccc21 [BISINDOLYLMALEIMIDE IX]", "residual activity", "%", 2),
]

Proceed to the following item.
## Task Field request: residual activity | item: NCCCn1cc(C2=C(c3c[nH]c4ccccc34)C(=O)NC2=O)c2ccccc21
## Result 9
